- experimental.system: CDK9/Cyclin T1 (Homo sapiens, UniProt P50750)
- Sequence (P50750 whole entry): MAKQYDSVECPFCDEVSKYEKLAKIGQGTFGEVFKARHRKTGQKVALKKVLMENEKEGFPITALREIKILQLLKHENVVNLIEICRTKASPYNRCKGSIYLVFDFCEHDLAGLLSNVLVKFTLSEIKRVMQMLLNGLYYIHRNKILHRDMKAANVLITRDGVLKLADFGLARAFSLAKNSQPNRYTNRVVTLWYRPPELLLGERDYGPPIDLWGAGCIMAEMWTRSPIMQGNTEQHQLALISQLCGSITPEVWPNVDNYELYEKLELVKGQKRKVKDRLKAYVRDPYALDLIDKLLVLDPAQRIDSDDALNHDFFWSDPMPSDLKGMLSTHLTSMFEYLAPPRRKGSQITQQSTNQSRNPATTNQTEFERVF
- Sequence (O60563 whole entry partner): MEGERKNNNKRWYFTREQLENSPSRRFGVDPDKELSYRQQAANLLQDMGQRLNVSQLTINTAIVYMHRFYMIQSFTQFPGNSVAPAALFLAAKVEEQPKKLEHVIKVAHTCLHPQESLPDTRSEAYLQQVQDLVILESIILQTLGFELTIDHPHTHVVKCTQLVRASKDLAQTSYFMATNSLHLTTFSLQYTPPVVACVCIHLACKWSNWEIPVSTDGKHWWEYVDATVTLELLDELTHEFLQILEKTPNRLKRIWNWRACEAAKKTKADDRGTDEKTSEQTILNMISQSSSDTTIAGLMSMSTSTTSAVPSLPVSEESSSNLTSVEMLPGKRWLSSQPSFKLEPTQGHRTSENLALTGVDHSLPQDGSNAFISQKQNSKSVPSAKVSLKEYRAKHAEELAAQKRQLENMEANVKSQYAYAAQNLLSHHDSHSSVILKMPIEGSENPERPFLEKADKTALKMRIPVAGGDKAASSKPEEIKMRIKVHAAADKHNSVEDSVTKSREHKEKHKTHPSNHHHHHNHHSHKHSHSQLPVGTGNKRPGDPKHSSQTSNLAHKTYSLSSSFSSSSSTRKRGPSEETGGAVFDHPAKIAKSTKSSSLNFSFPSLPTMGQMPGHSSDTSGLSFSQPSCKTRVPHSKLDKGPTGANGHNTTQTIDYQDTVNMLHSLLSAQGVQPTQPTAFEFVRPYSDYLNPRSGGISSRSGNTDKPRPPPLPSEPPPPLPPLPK
- experiment.summary: CDK9 Enzymatic Activity Assay (Lance Kinase Activity Assay, FRET)
- Assay type: biochemical
- recorded.conditions: Table 5B, class symbols per IC50 [nM] ranges of b581; read-out: CDK9: Selectivity of CDK7 inhibition over CDK9 inhibition
- Experimental: This protocol describes how the Lance Kinase Activity Assay was performed to determine IC50 values of compounds of general formula (I) against CDK/Cyclin complexes. […] It is detected by using a specific EU-labeled anti-phospho peptide antibody. […] For positive controls, 2 μl of DMSO working solution were mixed with 6 μl CDK9/cyclin T1/substrate working solution and 2 μl ATP working solution. Positive and negative controls were calculated from at least 8 different wells. […]
reported.metric: IC50

// CC(C)c1cnn2c(NCc3ccccc3-c3nnnn3C)nc(O[C@@H]3CCCNC3)nc12 : IC50 value = > 2500 nM

// CC(C)c1cnn2c(NCc3ccccc3C(F)(F)F)nc(OC3CCN(C)CC3)nc12 [VII-058] : IC50 value = > 2500 nM

// COc1ccccc1[C@H](C)Nc1nc(N[C@@H]2CCCNC2)nc2c(C(C)C)cnn12 : IC50 value = > 2500 nM

// CCCNC(=O)Nc1ccccc1CNc1nc(O[C@@H]2CCCNC2)nc2c(C(C)C)cnn12 : IC50 value = > 2500 nM

// Cc1cccc(Cl)c1CNc1nc(OC2CCN(C)CC2)nc2c(C(C)C)cnn12 : IC50 value = > 2500 nM

// CC(C)c1cnn2c(NCc3ccccc3-n3cccn3)nc(NC3CCCNC3)nc12 (stereo not drawn) : IC50 value = > 2500 nM

// CC(C)c1cnn2c(NCc3ccccc3Br)nc(O[C@@H]3CCCNC3)nc12 : IC50 value = 50 to 500 nM

// CC(C)c1cnn2c(NCc3cccc4nonc34)nc(N3CCC4(CCCN4)CC3)nc12 : IC50 value = 500 to 2500 nM

// CC(C)c1cnn2c(NCc3ccccc3OC3CCCC3)nc(O[C@@H]3CCCNC3)nc12 : IC50 value = > 2500 nM

// CC(C)c1cnn2c(NCc3ccccc3-n3cccn3)nc(C(=O)N3CCNCC3)nc12 : IC50 value = > 2500 nM

// CC(C)c1cnn2c(NCc3cccc4c3ccc[n+]4[O-])nc(O[C@@H]3CCCNC3)nc12 : IC50 value = < 50 nM

// CC(C)c1cnn2c(NC(C)c3ccccc3-n3cccn3)nc(O[C@@H]3CCCNC3)nc12 (stereo partly drawn) : IC50 value = 50 to 500 nM

// CC(C)c1cnn2c(NCc3ccccc3-n3cccn3)nc(N3CCC34CCNCC4)nc12 : IC50 value = > 2500 nM

// CC(C)c1cnn2c(NCc3ccccc3-n3cccn3)nc(CN(C)CCN3CCCC3)nc12 : IC50 value = > 2500 nM

// CC(C)c1cnn2c(NCc3ccccc3-n3cccn3)nc(OC3COC4(CCNCC4)C3)nc12 (stereo not drawn) [(VII-121)] : IC50 value = > 2500 nM

// CC(C)c1cnn2c(NCc3ccccc3-n3cccn3)nc(OC3CCN(C)CC3)nc12 : IC50 value = > 2500 nM

// CC(C)c1cnn2c(NCc3ccccc3-n3cccn3)nc(C(=O)NCCCCN)nc12 : IC50 value = > 2500 nM

// CC(C)c1cnn2c(NCc3ccccc3-n3cccn3)nc(N3CCC4(CCCCN4)CC3)nc12 : IC50 value = 500 to 2500 nM

// CC(C)c1cnn2c(NCc3ccccc3N3CCOCC3)nc(OC3CCN(C)CC3)nc12 : IC50 value = > 2500 nM

// CC(C)c1cnn2c(NCc3ccccc3NC(=O)NCc3ccccc3)nc(O[C@@H]3CCCNC3)nc12 : IC50 value = > 2500 nM

// CC(C)c1cnn2c(NCc3cccc4[nH]ncc34)nc(O[C@@H]3CCCNC3)nc12 : IC50 value = < 50 nM

FYI, the data here is from patent US9567345B2.
